Test system: LNCaP
Test: Antiproliferative activity against human LNCaP cells incubated for 6 days by CellTiter-Glo assay
Format: functional, cell-based
QUANTITY_MEASURED: IC50 (µM)
Unit µM implied. Number only.

Recorded results for 3 molecules are shown here.
In [3]: df
Out[3]:
                                   molecule  quantity_measured  quantitative_result
0  COc1cn(C2=CCC3C4CC=C5C[C@@H](NC(=O)c6ccnnc6)CC[C@]5(C)C4CC[C@]23C)cn1 (some centres undefined)               IC50                0.475
1  CC(O)c1cn(C2=CCC3C4CC=C5C[C@@H](NC(=O)c6ccnnc6)CC[C@]5(C)C4CC[C@]23C)cn1 (some centres undefined)               IC50                 1.83
2  COC(=O)c1cn(C2=CCC3C4CC=C5C[C@@H](NC(=O)c6ccnnc6)CC[C@]5(C)C4CC[C@]23C)cn1 (some centres undefined)               IC50                 1.96

Return reported IC50; argument: Cc1cn(C2=CCC3C4CC=C5C[C@@H](NC(=O)c6ccc(C#N)cc6)CC[C@]5(C)C4CC[C@]23C)cn1 (some centres undefined)
0.643

====

Experiment: Half life in Sprague-Dawley rat at 10 mg/kg, po measured upto 24 hrs by LC-MS/MS analysis
Type: ADME, organism-based
Conditions: in vivo
QUANTITY_MEASURED: half-life (h)
Unit h implied. Number only.

>>> df
                                   compound  quantity_measured  quantitative_result
0  Cc1cn(C2=CCC3C4CC=C5C[C@@H](NC(=O)c6ccc(F)cc6)CC[C@]5(C)C4CC[C@]23C)cn1.Cl (some centres undefined)          half-life                 6.82

Return reported half-life; argument: Cc1cn(C2=CCC3C4CC=C5C[C@@H](NC(=O)c6ccncc6)CC[C@]5(C)C4CC[C@]23C)cn1 (some centres undefined)
2.8

Now this one: Cc1cn(C2=CCC3C4CC=C5C[C@@H](NC(=O)c6ccc(F)cc6)CC[C@]5(C)C4CC[C@]23C)cn1 (some centres undefined)
3.28

Now this one: Cc1cn(C2=CCC3C4CC=C5C[C@@H](NC(=O)c6ccc(F)cc6F)CC[C@]5(C)C4CC[C@]23C)cn1 (some centres undefined)
6.02

====

Test: Tmax in dog at 10 mg/kg, po measured upto 24 hrs by LC-MS/MS analysis
Type: ADME, organism-based, Canis lupus familiaris
Settings: in vivo
QUANTITY_MEASURED: Tmax (h)
Unit h implied. Number only.

Return reported Tmax; argument: Cc1cn(C2=CCC3C4CC=C5C[C@@H](NC(=O)c6ccc(F)cc6)CC[C@]5(C)C4CC[C@]23C)cn1.Cl (stereo partly specified)
6

====

Experiment: Clearance in Sprague-Dawley rat at 5 mg/kg, iv measured upto 24 hrs by LC-MS/MS analysis
Assay type: ADME, organism-based
Conditions: in vivo
QUANTITY_MEASURED: clearance (mL/min/kg)
Unit mL/min/kg implied. Number only.

Return reported clearance; argument: Cc1cn(C2=CCC3C4CC=C5C[C@@H](NC(=O)c6ccc(F)cc6)CC[C@]5(C)C4CC[C@]23C)cn1.Cl (stereo partly specified)
1.82

Reference source for all entries: ChEMBL document CHEMBL5331145
